Data origin, for the record: patent US10201532B2

- System: KPC-3 expressing E. coli (J53 R6206)
- Test name: Synergistic broth micro-dilution MIC (checkerboard)
- Assay type: cell-based, Escherichia coli
- Experimental setup: BLI at 2 μg/mL
Listing of entries alongside the reported MIC of Ceftobiprole in combination with BLI.
Give just the number in µg/mL; leave the unit off.

| Smiles data | Endpoint result |
| --- | --- |
| C[n+]1ccn(C[C@@]2(C)[C@H](C(=O)[O-])N3C(=O)C[C@H]3S2(=O)=O)n1 | 2 |
| O=C(O)[C@H]1/C(=C/CO)O[C@@H]2CC(=O)N21 | 8 |
| CC1(C)[C@H](C(=O)O)N2C(=O)C[C@H]2S1(=O)=O | 32 |

Continue with the molecule presented below.
Req: Request the reported MIC of Ceftobiprole in combination with BLI associated with C[C@]1(Cn2ccnn2)[C@H](C(=O)O)N2C(=O)C[C@H]2S1(=O)=O
Resp: 32
